Barnyardgrass plant response rating values by entry
Tested on: bamyardgrass
Assay: Test B flood test barnyardgrass
Type: in vivo, Echinochloa crus-galli
Conditions: Rate 250 g/ha; Pre-emergence (flood test species); scale 0 to 10, 0 is no effect, 10 is complete control
Simply state the number, no unit and no words.

[
  {
    "molecule": "CC(C)N(C(=O)n1oc(=O)n(CC(=O)C2CCC2)c1=O)c1ccc(F)cc1 [Compound 640]",
    "Barnyardgrass plant response rating": 0
  }
]

Find the measured Barnyardgrass plant response rating of C=C(Cn1c(=O)on(C(=O)N(c2ccccc2)C(C)C)c1=O)C(C)C [Compound 649] and report it.
0

Find the measured Barnyardgrass plant response rating of CC(C)N(C(=O)n1oc(=O)n(CC2=NOCCO2)c1=O)c1ccc(F)cc1 [Compound 765] and report it.
0

Find the measured Barnyardgrass plant response rating of CC(C)C(=O)Cn1c(=O)on(C(=O)N(c2ccc(F)cc2F)C(C)C)c1=O [Compound 486] and report it.
0

Find the measured Barnyardgrass plant response rating of CC(C)N(C(=O)n1oc(=O)n(C(C)C2CCC2)c1=O)c1ccc(F)cc1F (centres unmarked) [Compound 702] and report it.
0
